The origin of these recorded values is PubChem BioAssay (NCI).

tested on: U251 CNS
Listed next: entries and their corresponding GI50.

Some solved entries appear below for comparison.
# returns recorded GI50 (system: U251 CNS) for `Cc1cc(I)cc(CN(C)CCCN2CCN(C)CC2)c1O`
30.9 µM

Please tell me: GI50 of `O=C(CCCCC(=O)N/N=C\c1ccccc1O)N/N=C\c1ccccc1O` , system U251 CNS?
3.09 µM

Missing value: GI50, U251 CNS, entry `C[C@@H](Nc1nc(Nc2ccc(F)c(Cl)c2)nc2ccccc12)C1CC1` . Fill in?
3.72 µM

We next turn to a different molecule, shown below.
Identify the measured GI50 of `COc1c(B(O)O)cc(F)cc1-c1nc2ccc3[nH]ncc3c2c2c1CCCC2` for U251 CNS.
1.6 µM
